B1: Hairpin Ribozyme (parent)
chain: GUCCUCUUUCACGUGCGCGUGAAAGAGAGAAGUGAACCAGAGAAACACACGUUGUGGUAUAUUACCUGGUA

# Variants of: B1
# Experiment: self-cleavage, relative activity (ratio to wild type); higher = more cleavage; co-transcriptional
Please respond with reported self-cleavage for every item in the list.
# output: bare number, no unit

Entry U53C U60A — recorded self-cleavage = 0.635

Item: G56U U63G | self-cleavage: 0.0375

Lab note: measured self-cleavage of A43U G68A was 0.0877

response.value for U7C C46U (field: self-cleavage) = 0.195

Entry G15U G19C — recorded self-cleavage = 1

Consider G34C G54C . Its measured self-cleavage is 0.735

Per the records, this variant ( U52A G69U ) has self-cleavage equal to 0.325

Query U2C U58A yields self-cleavage of 0.235

Record A35U G69U , field self-cleavage: 0.111

Note to self: self-cleavage recorded for C16A A36C was 0.399

Reported self-cleavage for C12U A35U was 0.743

Record summary for C18A U70G : reported self-cleavage = 0.862

Entry under test: A26G A64C . Its self-cleavage was 0.303

self-cleavage for C6A A44U is 0.167

Value of self-cleavage reported for the variant C16A G40C is 0.157

For record A39C A44G the listed self-cleavage is 0.0893

Given item C18G A24U , the value recorded as its self-cleavage is 0.729

Documented self-cleavage of G40C G68A : 0.132

Field self-cleavage (entry C3G C10G ) reads 0.182

Given item G13C G54A , the value recorded as its self-cleavage is 0.368

Value of self-cleavage reported for the variant C16G G32A is 0.179

The variant listed as A23U U62A has a reported self-cleavage of 0.106

Value of self-cleavage reported for the variant G32A U62A is 0.162

Please fill in: self-cleavage reported for `G15A` = 0.906

// self-cleavage value for U7A G15A : 0.909

// recorded self-cleavage for G40U G68A : 0.134

self-cleavage for C18U G68C is 0.221

Please fill in: self-cleavage reported for U5G G25C = 0.214

Please fill in: self-cleavage reported for G15A A71G = 0.943

Memo: A11U G19C , reported self-cleavage: 0.687

Input C16U U55C . Output self-cleavage: 0.251

Entry A26C C37U ; self-cleavage = 0.446

GET /value?item= U5G U9C &field=self-cleavage returns 0.197

The variant listed as C4A C65G shows self-cleavage equal to 0.179

self-cleavage recorded for this variant, G56A U67A , is 0.197

Just so you know, measured self-cleavage for C65U G69U came out at 0.279

The recorded self-cleavage for A23G C48U is 0.232

# self-cleavage (variant: A43C G69A ) is 0.105

# self-cleavage of U62G U63G = 0.191

Summary for this variant, A24C G34U : self-cleavage is 1.43

self-cleavage for C37G A39U is 0.0635

The variant listed as G25C G29A shows self-cleavage equal to 0.13

# self-cleavage (variant: A30U A31U ) is 0.149

The recorded self-cleavage for A41U C46A is 0.0476

The reported value for U20C A35C in terms of self-cleavage is 0.785

For reference, reported self-cleavage for C48U A61G stands at 0.177

The recorded self-cleavage for C4A G42C is 0.132

Sure, the documented self-cleavage for C12U A44C is 0.184

# variant A44C U53C ; its self-cleavage = 0.108

What the record says about U8C A64U : self-cleavage is 0.104

In plain terms, A41U U55A has a documented self-cleavage of 0.808

Per the record, G1A A71G has self-cleavage of 0.205

Sure, the documented self-cleavage for U52A U67G is 0.408

get_value(item= A31G C65G , readout=self-cleavage) returns 0.17

Per the record, C18A A36G has self-cleavage of 0.972

Value of measured self-cleavage for the entry C16A G40A : 0.28

Reported self-cleavage ( U20A A71U ) = 0.735

// recorded self-cleavage for G21C A26U : 0.57

The recorded self-cleavage for entry A64U U70G equals 0.155

What the record says about C16G C50G : self-cleavage is 0.157

// recorded self-cleavage for C3G G21A : 0.173

Reported self-cleavage ( C3A U53A ) = 0.662

Measured self-cleavage, G15A A64C : 0.171

Entry under test: A24C G27A . Its self-cleavage was 0.341

variant C4A G56A , self-cleavage observed: 0.114

Lab note: measured self-cleavage of G25C A43C was 0.0652

// C65U G68C : self-cleavage value = 0.108

Form: variant = A30C G56A ; self-cleavage = 0.194

The variant listed as C6G A30U has a reported self-cleavage of 0.105

Looking up G21U G34U , I see its self-cleavage listed as 1.24

Noted for A26C U60G : its self-cleavage reads 0.365

Value of self-cleavage reported for the variant A39C A45U is 0.231

Recorded result, U52C U53G , self-cleavage: 1

GET /value?item= A28G C37U &field=self-cleavage returns 0.644

Entry C46G U60C , self-cleavage reported as 0.0722

# variant U14C A47G ; its self-cleavage = 0.118

Lab note: A49U U58A gave self-cleavage of 0.187

Looking up U2G G27C , I found its self-cleavage recorded as 0.112

What the record says about C12A C48U : self-cleavage is 0.112

The variant U52C G57C showed self-cleavage equal to 0.123

For reference, reported self-cleavage for A41G G51A stands at 1.09

Item: U60C G68U | self-cleavage: 0.204

Input U8G C50U . Output self-cleavage: 0.327

response.value for A22C A47C (field: self-cleavage) = 0.24

GET /value?item= U20C U70G &field=self-cleavage returns 0.909

Per the records, this variant ( A43U A45U ) has self-cleavage equal to 0.164

The measured self-cleavage associated with U7C A45U reads 0.231

The variant listed as G29U C48U has a reported self-cleavage of 0.124

Reported self-cleavage of G19U G54A : 0.468

Entry A41G U55C , self-cleavage reported as 0.23

Reported self-cleavage of C65U G68U : 0.327
